experimentSummary: physchem
Assay type: physicochemical
conditionParameters: water
measuredQuantity: solubility (µg/mL)
Number only, in µg/mL; omit the unit.

Form field solubility, entry `C[C@@H]1C[C@H]2[C@@H]3CCC4=CC(=O)C=C[C@]4(C)[C@@]3(F)[C@@H](O)C[C@]2(C)[C@@]1(O)C(=O)CO` : 50
